# Tested on: M. abscessus complex
# assay.details: MIC (CLSI broth dilution), RGM isolates
# Assay type: cell-based
# condition: Mycobacteroides abscessus, isolate 13, M. abscessus complex, erm gene type Type 6 abscessus; read-out: MIC
measurement.type: MIC (µg/mL)
Numbers only; they are read as µg/mL.

COc1c(N2C[C@@H]3CCCN[C@@H]3C2)c(F)cc2c(=O)c(C(=O)O)cn(C3CC3)c12
8

Asked: I am curious: what MIC value has been reported for CN(C)c1cc(CNCC(C)(C)C)c(O)c2c1C[C@H]1C[C@H]3[C@H](N(C)C)C(O)=C(C(N)=O)C(=O)[C@@]3(O)C(O)=C1C2=O ?
Given back: 0.25

Asked: I am curious: what MIC value has been reported for CC(=O)NC[C@H]1CN(c2ccc(N3CCOCC3)c(F)c2)C(=O)O1 ?
Given back: 16

Asked: I am curious: what MIC value has been reported for CO[C@@]1(NC(=O)Cc2cccs2)C(=O)N2C(C(=O)O)=C(COC(N)=O)CS[C@@H]21 ?
Given back: 32
